Kindly supply the reported relative viability values for the records listed here.
Test system: NCI-H520
experiment.notes: relative viability (nuclei count vs DMSO), 5 days (fraction); higher = more cells survive
condition.label: first compound 0.08 µM
Format: numeric value only, no unit, no commentary.

relative viability measured on CCCCCCCCCCCC1=C(O)C(=O)C=C(O)C1=O [Embelin] + O=C(c1cc(Cc2n[nH]c(=O)c3ccccc23)ccc1F)N1CCN(C(=O)C2CC2)CC1 [Olaparib] (partner 8 µM) = 0.39

relative viability measured on CCCCCCCCCCCC1=C(O)C(=O)C=C(O)C1=O [Embelin] + CC(=O)c1c(C)c2cnc(Nc3ccc(N4CCNCC4)cn3)nc2n(C2CCCC2)c1=O [Palbociclib] (partner 0.5 µM) = 0.303

relative viability measured on CCCCCCCCCCCC1=C(O)C(=O)C=C(O)C1=O [Embelin] + CS(=O)(=O)CCNCc1ccc(-c2ccc3ncnc(Nc4ccc(OCc5cccc(F)c5)c(Cl)c4)c3c2)o1 [Lapatinib] (partner 2 µM) = 0.946

relative viability measured on CCCCCCCCCCCC1=C(O)C(=O)C=C(O)C1=O [Embelin] + CCNC(=O)c1noc(-c2cc(C(C)C)c(O)cc2O)c1-c1ccc(CN2CCOCC2)cc1 [Luminespib] (partner 0.01 µM) = 0.224

relative viability measured on CCCCCCCCCCCC1=C(O)C(=O)C=C(O)C1=O [Embelin] + CC1(C)CCC(c2ccc(Cl)cc2)=C(CN2CCN(c3ccc(C(=O)NS(=O)(=O)c4ccc(N[C@H](CCN5CCOCC5)CSc5ccccc5)c(S(=O)(=O)C(F)(F)F)c4)cc3)CC2)C1 [Navitoclax] (partner 0.5 µM) = 1.24

====

Test system: LOU-NH91
experiment.notes: relative viability (nuclei count vs DMSO), 5 days (fraction); higher = more cells survive
condition.label: first compound 0.01 µM
readout: relative viability
Format: numeric value only, no unit, no commentary.

relative viability measured on CC(C)Oc1cc(Nc2nc(N[C@@H](C)c3ccc(F)cn3)ncc2Cl)n[nH]1 [AZ23] + CS(=O)(=O)N1CCN(Cc2cc3nc(-c4cccc5[nH]ncc45)nc(N4CCOCC4)c3s2)CC1 [Pictilisib] (partner 1 µM) = 0.483

relative viability measured on CC(C)Oc1cc(Nc2nc(N[C@@H](C)c3ccc(F)cn3)ncc2Cl)n[nH]1 [AZ23] + Cc1cc(Nc2cc(N3CCN(C)CC3)nc(Sc3ccc(NC(=O)C4CC4)cc3)n2)n[nH]1 [Tozasertib] (partner 0.1 µM) = 0.641

====

Tested on: NCI-H1651
experiment.notes: relative viability (nuclei count vs DMSO), 5 days (fraction); higher = more cells survive
condition.label: first compound 0.8 µM
# note: boundary value 0.8 maps to NOT MET; relative viability below it maps to MET

Threshold test, relative viability < 0.8: CCCCCCCCCCCC1=C(O)C(=O)C=C(O)C1=O [Embelin] + C[C@@H](Oc1cc(-c2cnn(C3CCNCC3)c2)cnc1N)c1c(Cl)ccc(F)c1Cl [Crizotinib] (partner 1 µM) NOT MET

Threshold test, relative viability < 0.8: CCCCCCCCCCCC1=C(O)C(=O)C=C(O)C1=O [Embelin] + CC(C)C[C@H](NC(=O)[C@H](Cc1ccccc1)NC(=O)c1cnccn1)B(O)O [Bortezomib] (partner 0.002 µM) NOT MET

Threshold test, relative viability < 0.8: CCCCCCCCCCCC1=C(O)C(=O)C=C(O)C1=O [Embelin] + Cc1nc(Nc2ncc(C(=O)Nc3c(C)cccc3Cl)s2)cc(N2CCN(CCO)CC2)n1 [Dasatinib] (partner 0.075 µM) MET

Threshold test, relative viability < 0.8: CCCCCCCCCCCC1=C(O)C(=O)C=C(O)C1=O [Embelin] + COc1cc2c(Oc3ccc(NC(=O)C4(C(=O)Nc5ccc(F)cc5)CC4)cc3F)ccnc2cc1OCCCN1CCOCC1 [Foretinib] (partner 0.25 µM) NOT MET

Threshold test, relative viability < 0.8: CCCCCCCCCCCC1=C(O)C(=O)C=C(O)C1=O [Embelin] + N=C(N)NC(=N)NCCc1ccccc1 [Phenformin] (partner 250 µM) MET

====

Tested on: HCC-15
experiment.notes: relative viability (nuclei count vs DMSO), 5 days (fraction); higher = more cells survive
condition.label: first compound 0.4 µM
readout: relative viability

relative viability measured on Clc1ccc(Nc2nnc(Cc3ccncc3)c3ccccc23)cc1 [Vatalanib] + CC1(C)CCC(c2ccc(Cl)cc2)=C(CN2CCN(c3ccc(C(=O)NS(=O)(=O)c4ccc(N[C@H](CCN5CCOCC5)CSc5ccccc5)c(S(=O)(=O)C(F)(F)F)c4)cc3)CC2)C1 [Navitoclax] (partner 0.5 µM) = 0.767

relative viability measured on Clc1ccc(Nc2nnc(Cc3ccncc3)c3ccccc23)cc1 [Vatalanib] + CS(=O)(=O)CCNCc1ccc(-c2ccc3ncnc(Nc4ccc(OCc5cccc(F)c5)c(Cl)c4)c3c2)o1 [Lapatinib] (partner 2 µM) = 0.853

relative viability measured on C[C@@H]1CN(CC(=O)Nc2ccc3c(c2)Cc2cccc(-c4cc(=O)cc(N5CCOCC5)o4)c2S3)C[C@H](C)O1 + C[C@]1(O)C[C@@H](c2nc(-c3ccc4ccc(-c5ccccc5)nc4c3)c3c(N)nccn32)C1 [Linsitinib] (partner 1 µM) = 0.878

relative viability measured on COc1cc(N2CCC(C(N)=O)CC2)ccc1Nc1nc(N)c(Cl)c(Nc2ccccc2S(=O)(=O)C(C)C)n1 [HG-5-88-01] + C[C@]1(O)C[C@@H](c2nc(-c3ccc4ccc(-c5ccccc5)nc4c3)c3c(N)nccn32)C1 [Linsitinib] (partner 1 µM) = 0.92

relative viability measured on COc1cc(N2CCC(C(N)=O)CC2)ccc1Nc1nc(N)c(Cl)c(Nc2ccccc2S(=O)(=O)C(C)C)n1 [HG-5-88-01] + Nc1ncn([C@H]2C[C@H](O)[C@@H](CO)O2)c(=O)n1 [Decitabine] (partner 2 µM) = 0.487

relative viability measured on Clc1ccc(Nc2nnc(Cc3ccncc3)c3ccccc23)cc1 [Vatalanib] + CC(C)C[C@H](NC(=O)[C@H](Cc1ccccc1)NC(=O)c1cnccn1)B(O)O [Bortezomib] (partner 0.002 µM) = 1.03

relative viability measured on C[C@@H]1CN(CC(=O)Nc2ccc3c(c2)Cc2cccc(-c4cc(=O)cc(N5CCOCC5)o4)c2S3)C[C@H](C)O1 + CC(C)C[C@H](NC(=O)[C@H](Cc1ccccc1)NC(=O)c1cnccn1)B(O)O [Bortezomib] (partner 0.002 µM) = 1.03

relative viability measured on Clc1ccc(Nc2nnc(Cc3ccncc3)c3ccccc23)cc1 [Vatalanib] + Nc1nc2[nH]cc(CCc3ccc(C(=O)N[C@@H](CCC(=O)O)C(=O)O)cc3)c2c(=O)[nH]1 [Pemetrexed] (partner 0.2 µM) = 0.225

====

Test system: ABC-1
experiment.notes: relative viability (nuclei count vs DMSO), 5 days (fraction); higher = more cells survive
condition.label: first compound 4 µM
readout: relative viability
Format: numeric value only, no unit, no commentary.

relative viability measured on COc1cc(N2CCC(C(N)=O)CC2)ccc1Nc1nc(N)c(Cl)c(Nc2ccccc2S(=O)(=O)C(C)C)n1 [HG-5-88-01] + NC(=O)Nc1cc(-c2cccc(F)c2)sc1C(=O)N[C@H]1CCCNC1 [AZD7762] (partner 0.2 µM) = 0.657

relative viability measured on Clc1ccc(Nc2nnc(Cc3ccncc3)c3ccccc23)cc1 [Vatalanib] + O=C(CCCCCCC(=O)Nc1ccccc1)NO [Vorinostat] (partner 1 µM) = 1.39

relative viability measured on C[C@@H]1CN(CC(=O)Nc2ccc3c(c2)Cc2cccc(-c4cc(=O)cc(N5CCOCC5)o4)c2S3)C[C@H](C)O1 + Nc1ncn([C@H]2C[C@H](O)[C@@H](CO)O2)c(=O)n1 [Decitabine] (partner 2 µM) = 1.48

relative viability measured on COc1cc(N2CCC(C(N)=O)CC2)ccc1Nc1nc(N)c(Cl)c(Nc2ccccc2S(=O)(=O)C(C)C)n1 [HG-5-88-01] + Cc1cc(Nc2cc(N3CCN(C)CC3)nc(Sc3ccc(NC(=O)C4CC4)cc3)n2)n[nH]1 [Tozasertib] (partner 0.1 µM) = 0.179

relative viability measured on Clc1ccc(Nc2nnc(Cc3ccncc3)c3ccccc23)cc1 [Vatalanib] + C[C@]1(O)C[C@@H](c2nc(-c3ccc4ccc(-c5ccccc5)nc4c3)c3c(N)nccn32)C1 [Linsitinib] (partner 1 µM) = 0.981

relative viability measured on COc1cc(N2CCC(C(N)=O)CC2)ccc1Nc1nc(N)c(Cl)c(Nc2ccccc2S(=O)(=O)C(C)C)n1 [HG-5-88-01] + CCNC(=O)c1noc(-c2cc(C(C)C)c(O)cc2O)c1-c1ccc(CN2CCOCC2)cc1 [Luminespib] (partner 0.01 µM) = 0.587

relative viability measured on Clc1ccc(Nc2nnc(Cc3ccncc3)c3ccccc23)cc1 [Vatalanib] + COc1cc2c(Oc3ccc(NC(=O)C4(C(=O)Nc5ccc(F)cc5)CC4)cc3F)ccnc2cc1OCCCN1CCOCC1 [Foretinib] (partner 0.25 µM) = 0.989

relative viability measured on Clc1ccc(Nc2nnc(Cc3ccncc3)c3ccccc23)cc1 [Vatalanib] + CCNC(=O)c1noc(-c2cc(C(C)C)c(O)cc2O)c1-c1ccc(CN2CCOCC2)cc1 [Luminespib] (partner 0.01 µM) = 0.507

relative viability measured on COc1cc(N2CCC(C(N)=O)CC2)ccc1Nc1nc(N)c(Cl)c(Nc2ccccc2S(=O)(=O)C(C)C)n1 [HG-5-88-01] + C[C@@H](Oc1cc(-c2cnn(C3CCNCC3)c2)cnc1N)c1c(Cl)ccc(F)c1Cl [Crizotinib] (partner 1 µM) = 0.43

relative viability measured on C[C@@H]1CN(CC(=O)Nc2ccc3c(c2)Cc2cccc(-c4cc(=O)cc(N5CCOCC5)o4)c2S3)C[C@H](C)O1 + Cc1nc(NC(=O)N2CCC[C@H]2C(N)=O)sc1-c1ccnc(C(C)(C)C(F)(F)F)c1 [Alpelisib] (partner 2 µM) = 0.466

relative viability measured on C[C@@H]1CN(CC(=O)Nc2ccc3c(c2)Cc2cccc(-c4cc(=O)cc(N5CCOCC5)o4)c2S3)C[C@H](C)O1 + N=C(N)NC(=N)NCCc1ccccc1 [Phenformin] (partner 250 µM) = 0.236

relative viability measured on C[C@@H]1CN(CC(=O)Nc2ccc3c(c2)Cc2cccc(-c4cc(=O)cc(N5CCOCC5)o4)c2S3)C[C@H](C)O1 + C[C@]1(O)C[C@@H](c2nc(-c3ccc4ccc(-c5ccccc5)nc4c3)c3c(N)nccn32)C1 [Linsitinib] (partner 1 µM) = 0.673

relative viability measured on Clc1ccc(Nc2nnc(Cc3ccncc3)c3ccccc23)cc1 [Vatalanib] + C[C@@H](Oc1cc(-c2cnn(C3CCNCC3)c2)cnc1N)c1c(Cl)ccc(F)c1Cl [Crizotinib] (partner 1 µM) = 1.13

relative viability measured on C[C@@H]1CN(CC(=O)Nc2ccc3c(c2)Cc2cccc(-c4cc(=O)cc(N5CCOCC5)o4)c2S3)C[C@H](C)O1 + Cc1cc(Nc2cc(N3CCN(C)CC3)nc(Sc3ccc(NC(=O)C4CC4)cc3)n2)n[nH]1 [Tozasertib] (partner 0.1 µM) = 0.16

relative viability measured on COc1cc(N2CCC(C(N)=O)CC2)ccc1Nc1nc(N)c(Cl)c(Nc2ccccc2S(=O)(=O)C(C)C)n1 [HG-5-88-01] + CC(C)C[C@H](NC(=O)[C@H](Cc1ccccc1)NC(=O)c1cnccn1)B(O)O [Bortezomib] (partner 0.002 µM) = 0.283

relative viability measured on COc1cc(N2CCC(C(N)=O)CC2)ccc1Nc1nc(N)c(Cl)c(Nc2ccccc2S(=O)(=O)C(C)C)n1 [HG-5-88-01] + C[C@]1(O)C[C@@H](c2nc(-c3ccc4ccc(-c5ccccc5)nc4c3)c3c(N)nccn32)C1 [Linsitinib] (partner 1 µM) = 1.01

relative viability measured on COc1cc(N2CCC(C(N)=O)CC2)ccc1Nc1nc(N)c(Cl)c(Nc2ccccc2S(=O)(=O)C(C)C)n1 [HG-5-88-01] + Nc1ncn([C@H]2C[C@H](O)[C@@H](CO)O2)c(=O)n1 [Decitabine] (partner 2 µM) = 0.946

Hey, just so you know, these numbers are from the supplement of paper PMC10307832.
